# credit: ChEMBL document CHEMBL1201861

The entries below are paired with their reported IC50.
System: SW1783;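 further: cell growth inhibition measured with a viability assay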
Test: cells
Assay type: functional, cell-based, Homo sapiens
Details: Homo sapiens, SW1783
Description: SANGER: Inhibition of human SW1783 cell growth in a cell viability assay.
Structures can show the parent of a compound that is named as a salt.
Only the number, expressed in µM, is required.

compound	measured-on	unit	IC50
COC1=CC(c2cc3ccccc3[nH]2)=N/C1=C\c1[nH]c(C)cc1C [OBATOCLAX MESYLATE]	SW1783	µM	0.193

GET /value?item= CC(C)c1ccccc1Cc1cc(C(=O)Nc2ccc(S(=O)(=O)c3ccccc3C(C)(C)C)cc2)c(O)c(O)c1O &field=IC50 returns 0.213

* * *

Test system: NCI-H1975
Assay: cells
Assay type: functional, cell-based, Homo sapiens
Details: Homo sapiens, NCI-H1975
Description: SANGER: Inhibition of human NCI-H1975 cell growth in a cell viability assay.
The entries below are paired with their reported IC50.

compound	endpoint-value
CS(=O)(=O)c1ccc(C(=O)Nc2ccc(Cl)c(-c3ccccn3)c2)c(Cl)c1 [VISMODEGIB]	> 10 µM
Cc1cn(-c2cc(NC(=O)c3ccc(C)c(Nc4nccc(-c5cccnc5)n4)c3)cc(C(F)(F)F)c2)cn1 [NILOTINIB]	> 2 µM
Nc1cccc2c1CN(C1CCC(=O)NC1=O)C2=O (centres undefined) [LENALIDOMIDE]	> 5 µM

# IC50 measured on NCI-H1975 for item CO[C@H]1C[C@@H]2CC[C@@H](C)[C@@](O)(O2)C(=O)C(=O)N2CCCC[C@H]2C(=O)O[C@H]([C@H](C)C[C@@H]2CC[C@@H](OC(=O)C(C)(CO)CO)[C@H](OC)C2)CC(=O)[C@H](C)/C=C(\C)[C@@H](O)[C@@H](OC)C(=O)[C@H](C)C[C@H](C)/C=C/C=C/C=C/1C [TEMSIROLIMUS] = > 0.2 µM

* * *

Tested on: LK-2;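 further: growth inhibition of LK-2 cells, read out with a viability assay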
Experiment: cells
Format: functional, cell-based, Homo sapiens
Conditions: lk-2
Description: SANGER: Inhibition of human LK-2 cell growth in a cell viability assay.
measure-name: IC50 (µM)
Only the number, expressed in µM, is required.

GET /value?item= CISPLATIN &field=IC50 returns 44.3

* * *

Test system: NCI-N87;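 further: growth inhibition of human NCI-N87 cells, read out with a cell viability assay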
Test: cells
Type: functional, cell-based, Homo sapiens
Settings: Homo sapiens, NCI-N87
Description: SANGER: Inhibition of human NCI-N87 cell growth in a cell viability assay.
measure-name: IC50

As a guide, the following entries are already answered.
> print(dat)
                                   compound  measured.on  measure.name  endpoint.value
1  CC1(C)CNc2cc(NC(=O)c3cccnc3NCc3ccncc3)ccc21 [MOTESANIB]      NCI-N87          IC50          > 2 µM
2  COc1cccc2c1C(=O)c1c(O)c3c(c(O)c1C2=O)C[C@@](O)(C(=O)CO)C[C@@H]3O[C@H]1C[C@H](N)[C@H](O)[C@H](C)O1 [DOXORUBICIN]      NCI-N87          IC50         0.48 µM
3        Oc1ccc2ccccc2c1SSc1c(O)ccc2ccccc12      NCI-N87          IC50         > 32 µM

# IC50 measured on NCI-N87 for item COc1cc2ncn(-c3cc(OCc4ccccc4S(C)(=O)=O)c(C#N)s3)c2cc1OC [GSK-319347A] = > 5 µM

# IC50 measured on NCI-N87 for item Nc1cccc2c1CN(C1CCC(=O)NC1=O)C2=O (stereo unspecified) [LENALIDOMIDE] = > 5 µM

# IC50 measured on NCI-N87 for item Cn1cnc2c(F)c(Nc3ccc(Br)cc3Cl)c(C(=O)NOCCO)cc21 [SELUMETINIB] = > 4 µM
